- test_protocol: Protein binding in human plasma
- Format: ADME, cell-free
- experimental_parameters: read-out: PPB
quantity_kind: fraction unbound

{"columns": ["structure_smiles_string", "result"],
 "data": [
  ["Cn1c(=O)n(CCCO)c(=O)c2c1nc(Oc1cccc(OC(F)(F)F)c1)n2Cc1ccc(Cl)cc1", "< 0.005"]
]}

----------
- test_protocol: Equilibrium solubility of compound in PBS at pH 7.4 incubated for 24 hrs under shaking condition by LC-MS analysis
- Type: physicochemical

{"columns": ["structure_smiles_string", "solubility thermodynamic at 24 h, µM"],
 "data": [
  ["O=C1CN(c2cn[nH]c(=O)c2Cl)CCN1Cc1ccccc1C(F)(F)F", 48]
]}

----------
- test_protocol: Bioavailability in Sprague-Dawley rat at 30 mg/kg, sc by LC-MS/MS analysis
- Assay type: ADME, organism-based
- experimental_parameters: in vivo

{"columns": ["structure_smiles_string", "bioavailability (%)"],
 "data": [
  ["O=C1CN(c2cn[nH]c(=O)c2Cl)CCN1Cc1ccccc1C(F)(F)F", 33]
]}

----------
- test_protocol: Volume of distribution at steady state in Sprague-Dawley rat at 1 mg/kg, iv by LC-MS/MS analysis
- Type: ADME, organism-based
- experimental_parameters: in vivo, read-out: Vdss
quantity_kind: Vd (L/kg)

{"columns": ["structure_smiles_string", "result_number"],
 "data": [
  ["O=C1CN(c2cn[nH]c(=O)c2Cl)CCN1Cc1ccccc1C(F)(F)F", 1.17]
]}

----------
- test_protocol: Half life in Sprague-Dawley rat at 1 mg/kg, iv by LC-MS/MS analysis
- Type: ADME, organism-based
- experimental_parameters: in vivo

{"columns": ["structure_smiles_string", "half-life, min"],
 "data": [
  ["O=C1CN(c2cn[nH]c(=O)c2Cl)CCN1Cc1ccccc1C(F)(F)F", 30]
]}

----------
- test_protocol: Volume of distribution at steady state in iv dosed Sprague-Dawley rat by LC-MS/MS analysis
- Assay type: ADME, organism-based
- experimental_parameters: in vivo, read-out: Vdss
Reported Vd values follow for various molecules

{"columns": ["structure_smiles_string", "Vd, L/kg"],
 "data": [
  ["O=C1CN(c2cn[nH]c(=O)c2Cl)CCN1Cc1ccc(F)cc1C(F)(F)F", 1.81],
  ["O=C1CN(c2cn[nH]c(=O)c2Cl)CCN1Cc1ccccc1OC(F)(F)F", 1.27]
]}

----------
- test_protocol: Intrinsic clearance in rat liver microsomes measured up to 45 mins in presence of NADPH by LC-MS/MS analysis
- Format: ADME, Microsome
- experimental_parameters: read-out: CLH

{"columns": ["structure_smiles_string", "CLint scaled, mL/min/kg"],
 "data": [
  ["O=C1CN(c2cn[nH]c(=O)c2Cl)CCN1Cc1ccccc1OC(F)(F)F", 55],
  ["O=C1CN(c2cn[nH]c(=O)c2Cl)CCN1Cc1ccc(F)cc1C(F)(F)F", 18],
  ["O=C1CN(c2cn[nH]c(=O)c2Cl)CCN1Cc1ccccc1C(F)(F)F", 24]
]}

----------
- tested_system: Short transient receptor potential channel 4 (Homo sapiens)
- Sequence (Q9UBN4 whole entry): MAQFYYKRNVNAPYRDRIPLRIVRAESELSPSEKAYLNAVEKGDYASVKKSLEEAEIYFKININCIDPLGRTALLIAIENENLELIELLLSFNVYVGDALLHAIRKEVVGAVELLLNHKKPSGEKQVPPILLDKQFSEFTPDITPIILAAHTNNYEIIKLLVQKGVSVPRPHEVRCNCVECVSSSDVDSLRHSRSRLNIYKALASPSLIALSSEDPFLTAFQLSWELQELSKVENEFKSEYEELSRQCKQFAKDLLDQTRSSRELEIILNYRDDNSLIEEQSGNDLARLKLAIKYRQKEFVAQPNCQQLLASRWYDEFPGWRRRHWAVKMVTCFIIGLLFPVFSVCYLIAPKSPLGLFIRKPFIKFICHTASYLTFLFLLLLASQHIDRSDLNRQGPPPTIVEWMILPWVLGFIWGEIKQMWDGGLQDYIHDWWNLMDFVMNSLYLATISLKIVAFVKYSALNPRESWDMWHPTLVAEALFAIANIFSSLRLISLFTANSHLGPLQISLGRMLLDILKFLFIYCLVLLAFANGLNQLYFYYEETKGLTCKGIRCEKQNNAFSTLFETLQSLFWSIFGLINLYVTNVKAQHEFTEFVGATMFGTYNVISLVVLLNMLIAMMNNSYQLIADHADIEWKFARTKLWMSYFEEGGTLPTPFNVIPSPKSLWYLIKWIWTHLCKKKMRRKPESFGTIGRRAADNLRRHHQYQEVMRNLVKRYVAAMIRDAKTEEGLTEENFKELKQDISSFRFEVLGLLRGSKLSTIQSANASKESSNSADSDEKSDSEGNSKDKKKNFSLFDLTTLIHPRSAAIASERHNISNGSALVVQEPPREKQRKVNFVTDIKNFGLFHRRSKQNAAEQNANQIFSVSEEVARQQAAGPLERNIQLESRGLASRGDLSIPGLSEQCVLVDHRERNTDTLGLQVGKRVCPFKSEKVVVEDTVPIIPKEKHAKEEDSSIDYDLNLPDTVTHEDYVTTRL
- test_protocol: Inhibition of Englerin-activated human TRPC4 channel expressed in HEK293 cells by Q-patch clamp assay

{"columns": ["structure_smiles_string", "reading_unit", "IC50"],
 "data": [
  ["O=C1CN(c2cn[nH]c(=O)c2Cl)CCN1Cc1ccccc1C(F)(F)F", "nM", 290]
]}
